Frequency of death with an intravenous dose of 100 mg/kg reference
# Tested on: female NMRI-albino mice
# Assay: examination of acute toxicity, i.v., female NMRI-albino mice
# Type: in vivo
# Experimental Setup: 100 mg/kg i.v., within 24 hours

In [3]: df
Out[3]:
                                   molecule  experimental_value
0  Cn1c(=O)c2c(ncn2CCCCCN[C@H]2CO[C@H]3[C@@H]2OC[C@@H]3O[N+](=O)[O-])n(C)c1=O [Example 4]                0/10
1  Cn1c(=O)c2c(ncn2CCCCCCN[C@H]2CO[C@H]3[C@@H]2OC[C@@H]3O[N+](=O)[O-])n(C)c1=O [Example 5]                4/10

Enquiry: Frequency of death with an intravenous dose of 100 mg/kg lookup needed for Nc1ncnc2c1ncn2CCCCCN[C@H]1CO[C@H]2[C@@H]1OC[C@@H]2O[N+](=O)[O-] [Example 16] , thanks.
Return: 0/10

Enquiry: Entry to check: CC(C)Cn1c(=O)n(C)c(=O)c2c1ncn2CCCN[C@H]1CO[C@H]2[C@@H]1OC[C@@H]2O[N+](=O)[O-] [Example 8c]
Return: 0/3

Enquiry: Entry to check: Nc1ncnc2c1ncn2CCCCN[C@H]1CO[C@H]2[C@@H]1OC[C@@H]2O[N+](=O)[O-] [Example 15]
Return: 3/3

Enquiry: Entry to check: Cn1c(=O)c2c(ncn2CCN[C@H]2CO[C@H]3[C@@H]2OC[C@@H]3O[N+](=O)[O-])n(C)c1=O [Example 2]
Return: 0/3

Enquiry: Entry to check: Nc1ncnc2c1ncn2CCCCCCN[C@H]1CO[C@H]2[C@@H]1OC[C@@H]2O[N+](=O)[O-] [Example 17]
Return: 2/3
